- MEASUREMENT_PROTOCOL: Plasma concentrations after single and repeated application of 4.4% oxybutynin gel to the abdomen
- Format: in vivo
- REPORTED_CONDITIONS: human, plasma, topical, 3 g of 4.4% oxybutynin gel, once daily, after the second daily application of 3 g of 4.4% oxybutynin gel; read-out: plasma concentration 24 hours after application, mean±SD
MEASUREMENT_LABEL: concentration at 24 h (ng/mL)
Give a bare numeral; the unit ng/mL is implied.

Name the reported concentration at 24 h value associated with the compound CCN(CC)CC#CCOC(=O)C(O)(c1ccccc1)C1CCCCC1 (stereo not shown) 4.47

====

- MEASUREMENT_PROTOCOL: Single-dose pharmacokinetics after oxybutynin gel on 400 cm^2 and 800 cm^2 application areas on the thighs
- Type: in vivo, human
- REPORTED_CONDITIONS: human, topical; plasma; 3 g of 4.4% oxybutynin gel, 800 cm^2 application area; at 48 hours; read-out: Cmax
MEASUREMENT_LABEL: Cmax (ng/mL)
Could you give me the number in ng/mL? Just the number is fine.

Recorded Cmax for CCN(CC)CC#CCOC(=O)C(O)(c1ccccc1)C1CCCCC1 (stereo not shown) , please? 3.8

====

- MEASUREMENT_PROTOCOL: Single and multiple dose pharmacokinetics after oxybutynin gel administration
- Assay type: in vivo, human
- REPORTED_CONDITIONS: human, topical, 3 g of oxybutynin gel, once daily; plasma; second period, first 24 hours after the final of 7 daily 3 g gel applications
MEASUREMENT_LABEL: AUC (ng·h/mL)
Use ng·h/mL as the unit, but write only the number.

// returns reported AUC for input CCN(CC)CC#CCOC(=O)C(O)(c1ccccc1)C1CCCCC1 (stereo not shown) 149

====

- MEASUREMENT_PROTOCOL: Plasma concentrations after single and repeated application of 4.4% oxybutynin gel to the abdomen
- Assay type: in vivo
- REPORTED_CONDITIONS: human, plasma, topical, 3 g of 4.4% oxybutynin gel, once daily, after the initial application of 3 g of 4.4% oxybutynin gel; read-out: plasma concentration at the 24 hour post-dose timepoint, mean±SD
MEASUREMENT_LABEL: concentration at 24 h (ng/mL)
Answer in ng/mL, number only, no unit symbol.

What does the record list as concentration at 24 h for CCN(CC)CC#CCOC(=O)C(O)(c1ccccc1)C1CCCCC1 (stereo not shown) ? 4.02

====

- MEASUREMENT_PROTOCOL: Plasma concentrations after single application of 4.4% oxybutynin topical gel to the abdomen
- Format: in vivo, human
- REPORTED_CONDITIONS: human, plasma, topical; single 3 g of 4.4% oxybutynin gel, 400 cm^2 abdomen, healthy volunteers; read-out: mean maximum plasma concentration (Cmax)
MEASUREMENT_LABEL: Cmax (ng/mL)
Please respond with the number in ng/mL and leave the unit unwritten.

Returns the measured Cmax for the input molecule. Input: CCN(CC)CC#CCOC(=O)C(O)(c1ccccc1)C1CCCCC1 (stereo not shown) 2.17

====

- MEASUREMENT_PROTOCOL: Plasma concentrations after single and repeated application of 4.4% oxybutynin gel to the abdomen
- Type: in vivo
- REPORTED_CONDITIONS: human, topical, once daily; plasma; following the third application of 3 g of 4.4% oxybutynin gel; read-out: Cmax, mean±SD
MEASUREMENT_LABEL: Cmax

Report Cmax for CCN(CC)CC#CCOC(=O)C(O)(c1ccccc1)C1CCCCC1 (stereo not shown) [oxybutynin] please. 6.05 ng/mL

====

- MEASUREMENT_PROTOCOL: Plasma concentrations after single and repeated application of 4.4% oxybutynin gel to the abdomen
- Type: in vivo
- REPORTED_CONDITIONS: human, plasma, topical, 3 g of 4.4% oxybutynin gel, once daily, after the third daily application of 3 g of 4.4% oxybutynin gel; read-out: plasma concentration at the 24 hour post-dose timepoint, mean±SD
MEASUREMENT_LABEL: concentration at 24 h (ng/mL)
Kindly answer with a numeric value in ng/mL, unit omitted.

I would be grateful if you could share the reported concentration at 24 h for CCN(CC)CC#CCOC(=O)C(O)(c1ccccc1)C1CCCCC1 (stereo not shown) . 5.86

====

- MEASUREMENT_PROTOCOL: Single and multiple dose pharmacokinetics after oxybutynin gel administration
- Type: in vivo, human
- REPORTED_CONDITIONS: human, plasma, topical, 3 g of oxybutynin gel, once daily; second period: 7 consecutive daily 3 g gel applications; N-desethyloxybutynin: maximum for the 0-24 hour interval; read-out: mean Cmax following the final gel application
MEASUREMENT_LABEL: Cmax (ng/mL)
// units = ng/mL; emit number, no label

Consider the molecule shown here: CCN(CC)CC#CCOC(=O)C(O)(c1ccccc1)C1CCCCC1 (stereo not shown) What is its recorded Cmax? 9.01

====

- MEASUREMENT_PROTOCOL: Single and multiple dose pharmacokinetics after oxybutynin gel administration
- Format: in vivo, human
- REPORTED_CONDITIONS: human, plasma, topical, 3 g of oxybutynin gel, once daily; second period: 7 consecutive daily 3 g gel applications; read-out: mean plasma concentration at Time 0 of the final gel application
MEASUREMENT_LABEL: concentration at 0 h (ng/mL)
Output spec: scalar in ng/mL, unitless text.

Query: concentration at 0 h; subject: CCN(CC)CC#CCOC(=O)C(O)(c1ccccc1)C1CCCCC1 (stereo not shown) 4.63

====

- MEASUREMENT_PROTOCOL: Plasma concentrations after single application of 4.4% oxybutynin topical gel to the abdomen
- Format: in vivo, human
- REPORTED_CONDITIONS: human, topical; plasma; single 3 g of 4.4% oxybutynin gel, 400 cm^2 abdomen; read-out: elimination half-life (converted)
MEASUREMENT_LABEL: half-life

Any idea what its half-life is? The compound is CCN(CC)CC#CCOC(=O)C(O)(c1ccccc1)C1CCCCC1 (stereo not shown) ~18.4 h
